- SYSTEM: PDE4A5 (Rattus norvegicus, UniProt P54748)
- Construct: targets used in the assays are full-length proteins (as opposed to simply the catalytic domain); expressed in transfected cells; host or cells: Schizosaccharomyces pombe, gene integrated at the cgs2 locus
- Sequence (P54748 1-844): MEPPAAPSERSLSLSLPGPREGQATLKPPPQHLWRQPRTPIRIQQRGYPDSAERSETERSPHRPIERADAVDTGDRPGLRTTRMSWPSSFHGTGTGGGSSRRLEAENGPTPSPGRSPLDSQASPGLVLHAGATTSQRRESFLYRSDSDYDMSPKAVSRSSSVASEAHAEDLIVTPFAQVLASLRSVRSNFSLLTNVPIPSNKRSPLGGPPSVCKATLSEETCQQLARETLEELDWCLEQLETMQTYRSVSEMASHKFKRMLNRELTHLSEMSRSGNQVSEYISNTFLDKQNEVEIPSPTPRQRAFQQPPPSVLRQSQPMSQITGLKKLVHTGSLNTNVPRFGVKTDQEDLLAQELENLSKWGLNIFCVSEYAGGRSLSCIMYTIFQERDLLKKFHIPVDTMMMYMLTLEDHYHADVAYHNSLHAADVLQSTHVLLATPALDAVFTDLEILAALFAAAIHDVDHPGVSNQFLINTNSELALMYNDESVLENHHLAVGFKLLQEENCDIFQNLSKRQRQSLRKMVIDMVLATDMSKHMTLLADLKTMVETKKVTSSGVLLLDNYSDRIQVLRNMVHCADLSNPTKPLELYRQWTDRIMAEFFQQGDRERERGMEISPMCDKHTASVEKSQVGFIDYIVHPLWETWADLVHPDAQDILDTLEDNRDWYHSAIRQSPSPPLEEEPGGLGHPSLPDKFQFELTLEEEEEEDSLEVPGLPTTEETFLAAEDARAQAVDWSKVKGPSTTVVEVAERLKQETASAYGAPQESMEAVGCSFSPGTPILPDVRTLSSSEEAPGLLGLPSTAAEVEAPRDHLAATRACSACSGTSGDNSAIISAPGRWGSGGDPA
- ASSAY_EXPLANATION: Fission yeast 5FOA growth assay, strain expressing PDE4A5
- Type: cell-based
- CONDITION_DETAILS: 20 uM compound, 5FOA growth screen
RECORDED_ENDPOINT: 1 Assay (20 uM), PDE 4A5
Please give the numeric answer without any surrounding text.

# input compound: COC(=O)C1=C(C)N(C2CCCCC2)C(=O)/C1=C\c1cccs1 [Compound 22] ; wanted: its 1 Assay (20 uM), PDE 4A5
−0.06

# input compound: Cc1ccc2c(c1)c1nc3ccccc3nc1n2C(C)C [Compound 41] ; wanted: its 1 Assay (20 uM), PDE 4A5
84.08

# input compound: COC(=O)C1=C(C)N(c2ccccc2Cl)C(=O)/C1=C\c1cccs1 [Compound 27] ; wanted: its 1 Assay (20 uM), PDE 4A5
65.67
